study_target: Neuraminidase (Influenza A virus (strain A/USSR/90/1977 H1N1))
Sequence (P03469 whole entry): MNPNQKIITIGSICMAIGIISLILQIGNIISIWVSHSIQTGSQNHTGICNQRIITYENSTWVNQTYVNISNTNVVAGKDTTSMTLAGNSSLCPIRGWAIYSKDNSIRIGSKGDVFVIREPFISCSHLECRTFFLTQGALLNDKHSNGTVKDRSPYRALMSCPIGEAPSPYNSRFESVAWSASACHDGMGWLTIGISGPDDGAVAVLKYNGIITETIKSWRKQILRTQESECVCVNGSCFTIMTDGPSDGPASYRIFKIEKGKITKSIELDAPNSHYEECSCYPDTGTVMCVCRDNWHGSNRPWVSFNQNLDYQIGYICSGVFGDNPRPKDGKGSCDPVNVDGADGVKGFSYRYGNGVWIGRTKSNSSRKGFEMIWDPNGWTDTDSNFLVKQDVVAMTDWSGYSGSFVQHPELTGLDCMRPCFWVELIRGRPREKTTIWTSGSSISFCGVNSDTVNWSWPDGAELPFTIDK
test_summary: Inhibition of recombinant Influenza A virus H1N1 neuraminidase using 4-methylumbelliferyl-alpha-D-Nacetylneuraminic acid sodium salt hydrate as substrate by fluorometry
Just a reminder that ties go to rule not met: only IC50 strictly below 70 µM counts as rule met.

COc1cc2c(cc1O)CC[n+]1cc3c(OC)c(OC)ccc3c(C)c1-2	rule not met
c1c2c(cc3c1OCO3)-c1cc3cc4c(cc3c[n+]1CC2)OCO4	rule not met
COc1ccc2cc3[n+](cc2c1OC)CCc1cc2c(cc1-3)OCO2	rule met
COc1cc2c(cc1O)CC[n+]1cc3c(OC)c(OC)ccc3cc1-2	rule met

## Task In plain terms, does COc1cc2c(cc1OC)-c1cc3ccc(OC)c(OC)c3c[n+]1CC2 come in under 70 µM for IC50?
## Result rule met

## Task In plain terms, does c1c2c(cc3c1OCO3)-c1cc3ccc4c(c3c[n+]1CC2)OCO4 come in under 70 µM for IC50?
## Result rule met

* * *

test_summary: Inhibition of Clostridium perfringens neuraminidase by Dixon plot
measurement_name: pKi
// pKi: -log10(molar conc.)

## Task GET /values?readout=pKi&item= COc1ccc2cc3[n+](cc2c1OC)CCc1cc2c(cc1-3)OCO2
## Result 4.92

## Task GET /values?readout=pKi&item= COc1cc2c(cc1OC)-c1cc3ccc(OC)c(OC)c3c[n+]1CC2
## Result 4.77

* * *

test_summary: Inhibition of Clostridium perfringens neuraminidase 4-methylumbelliferyl-alpha-D-Nacetylneuraminic acid sodium salt hydrate as substrate by fluorometry
measurement_name: IC50
Answer with the figure and its unit, nothing else.

Below are worked cases with known answers.
COc1cc2c(cc1OC)-c1cc3ccc(OC)c(OC)c3c[n+]1CC2 [PALMITINE]	12.8 µM
COc1cc(/C=C/C(=O)CC(=O)/C=C/c2ccc(O)c(OC)c2)ccc1O [CURCUMIN]	6 µM
c1c2c(cc3c1OCO3)-c1cc3cc4c(cc3c[n+]1CC2)OCO4	65.2 µM
COc1cc2c(cc1OC)-c1c(OC)c(OC)cc3c1[C@H](C2)N(C)CC3 [GLAUCINE]	96.9 µM
COc1cc2c(cc1OC)-c1c(C)c3cc(OC)c(OC)cc3c[n+]1CC2	32.6 µM
COc1cc2c(cc1O)CC[n+]1cc3c(OC)c(OC)ccc3cc1-2 [JATRORRHIZINE]	37 µM
COc1cc2c(cc1O)CC[n+]1cc3c(OC)c(OC)ccc3c(C)c1-2	41.3 µM
COc1ccc2cc3[n+](cc2c1OC)CCc1cc2c(cc1-3)OCO2 [BERBERINE]	13.5 µM

From here, focus on the item given below.
## Task GET /values?readout=IC50&item= c1c2c(cc3c1OCO3)-c1cc3ccc4c(c3c[n+]1CC2)OCO4 [COPTISINE]
## Result 25.1 µM
